# Test system: Hepatotoxicity
# assay-summary: FDA HLAED, serum glutamic pyruvic transaminase (SGPT) increase
# experimental-conditions: human
test-readout: SGPT Increase - Number of Reports

Illustrative cases are given below, each with its answer.
Nc1ccn([C@@H]2O[C@H](CO)[C@@H](O)[C@@H]2O)c(=O)n1; >= 4
C[N+](C)(C)C[C@H](O)CC(=O)[O-]; < 4
O=C(O)[C@@H](S)[C@@H](S)C(=O)O; < 4
CN1CCCC(n2nc(Cc3ccc(Cl)cc3)c3ccccc3c2=O)CC1 (configuration not stated); < 4
CCOC(=O)[C@H](CCc1ccccc1)N[C@@H](C)C(=O)N1Cc2ccccc2C[C@H]1C(=O)O; >= 4

Next:
Entry under test: CCN[C@H]1C[C@H](C)S(=O)(=O)c2sc(S(N)(=O)=O)cc21 [DORZOLAMIDE] . Its SGPT Increase - Number of Reports was < 4
